- Tested on: human leukemia cell line T-ALL1 (with WT Notch1)
- Measurement Protocol: Cell cycle (PI staining, S-G2-M cells) and cell number, T-ALL1
- Format: cell-based
- Run Parameters: Homo sapiens, TALL-1, 144 h; T-ALL1, 6 days; read-out: IC50 (percentage of S-G2-M cells, growth inhibition)
pIC50: −log10 of the molar value.
Measurement Label: pIC50

Tell us which pIC50 value is on record for `CC(=O)c1c(C)c2cnc(Nc3nc(CN4CCNCC4)cs3)nc2[nH]c1=O`
~5.96

----------
- Test system: mouse WT-MEFs
- Measurement Protocol: Cell cycle and cell number, WT-MEFs
- Assay type: cell-based
- Run Parameters: 144 h; mouse WT-MEF, 6 days; read-out: IC50 (proliferation, percentage of S-G2-M cells)
Measurement Label: IC50

Tell us which IC50 value is on record for `CC(=O)c1c(C)c2cnc(Nc3nc(CN4CCNCC4)cs3)nc2[nH]c1=O`
~1200 nM

Hey, just so you know, these numbers are from patent US12312346B2.
